This section presents compounds with their documented inhibition values.
- measured-on: TPR/MET fusion protein (Mus musculus) (UniProt P16056+F6ZDS4)
- Sequence (F6ZDS4 whole entry partner, the tested form may be a part): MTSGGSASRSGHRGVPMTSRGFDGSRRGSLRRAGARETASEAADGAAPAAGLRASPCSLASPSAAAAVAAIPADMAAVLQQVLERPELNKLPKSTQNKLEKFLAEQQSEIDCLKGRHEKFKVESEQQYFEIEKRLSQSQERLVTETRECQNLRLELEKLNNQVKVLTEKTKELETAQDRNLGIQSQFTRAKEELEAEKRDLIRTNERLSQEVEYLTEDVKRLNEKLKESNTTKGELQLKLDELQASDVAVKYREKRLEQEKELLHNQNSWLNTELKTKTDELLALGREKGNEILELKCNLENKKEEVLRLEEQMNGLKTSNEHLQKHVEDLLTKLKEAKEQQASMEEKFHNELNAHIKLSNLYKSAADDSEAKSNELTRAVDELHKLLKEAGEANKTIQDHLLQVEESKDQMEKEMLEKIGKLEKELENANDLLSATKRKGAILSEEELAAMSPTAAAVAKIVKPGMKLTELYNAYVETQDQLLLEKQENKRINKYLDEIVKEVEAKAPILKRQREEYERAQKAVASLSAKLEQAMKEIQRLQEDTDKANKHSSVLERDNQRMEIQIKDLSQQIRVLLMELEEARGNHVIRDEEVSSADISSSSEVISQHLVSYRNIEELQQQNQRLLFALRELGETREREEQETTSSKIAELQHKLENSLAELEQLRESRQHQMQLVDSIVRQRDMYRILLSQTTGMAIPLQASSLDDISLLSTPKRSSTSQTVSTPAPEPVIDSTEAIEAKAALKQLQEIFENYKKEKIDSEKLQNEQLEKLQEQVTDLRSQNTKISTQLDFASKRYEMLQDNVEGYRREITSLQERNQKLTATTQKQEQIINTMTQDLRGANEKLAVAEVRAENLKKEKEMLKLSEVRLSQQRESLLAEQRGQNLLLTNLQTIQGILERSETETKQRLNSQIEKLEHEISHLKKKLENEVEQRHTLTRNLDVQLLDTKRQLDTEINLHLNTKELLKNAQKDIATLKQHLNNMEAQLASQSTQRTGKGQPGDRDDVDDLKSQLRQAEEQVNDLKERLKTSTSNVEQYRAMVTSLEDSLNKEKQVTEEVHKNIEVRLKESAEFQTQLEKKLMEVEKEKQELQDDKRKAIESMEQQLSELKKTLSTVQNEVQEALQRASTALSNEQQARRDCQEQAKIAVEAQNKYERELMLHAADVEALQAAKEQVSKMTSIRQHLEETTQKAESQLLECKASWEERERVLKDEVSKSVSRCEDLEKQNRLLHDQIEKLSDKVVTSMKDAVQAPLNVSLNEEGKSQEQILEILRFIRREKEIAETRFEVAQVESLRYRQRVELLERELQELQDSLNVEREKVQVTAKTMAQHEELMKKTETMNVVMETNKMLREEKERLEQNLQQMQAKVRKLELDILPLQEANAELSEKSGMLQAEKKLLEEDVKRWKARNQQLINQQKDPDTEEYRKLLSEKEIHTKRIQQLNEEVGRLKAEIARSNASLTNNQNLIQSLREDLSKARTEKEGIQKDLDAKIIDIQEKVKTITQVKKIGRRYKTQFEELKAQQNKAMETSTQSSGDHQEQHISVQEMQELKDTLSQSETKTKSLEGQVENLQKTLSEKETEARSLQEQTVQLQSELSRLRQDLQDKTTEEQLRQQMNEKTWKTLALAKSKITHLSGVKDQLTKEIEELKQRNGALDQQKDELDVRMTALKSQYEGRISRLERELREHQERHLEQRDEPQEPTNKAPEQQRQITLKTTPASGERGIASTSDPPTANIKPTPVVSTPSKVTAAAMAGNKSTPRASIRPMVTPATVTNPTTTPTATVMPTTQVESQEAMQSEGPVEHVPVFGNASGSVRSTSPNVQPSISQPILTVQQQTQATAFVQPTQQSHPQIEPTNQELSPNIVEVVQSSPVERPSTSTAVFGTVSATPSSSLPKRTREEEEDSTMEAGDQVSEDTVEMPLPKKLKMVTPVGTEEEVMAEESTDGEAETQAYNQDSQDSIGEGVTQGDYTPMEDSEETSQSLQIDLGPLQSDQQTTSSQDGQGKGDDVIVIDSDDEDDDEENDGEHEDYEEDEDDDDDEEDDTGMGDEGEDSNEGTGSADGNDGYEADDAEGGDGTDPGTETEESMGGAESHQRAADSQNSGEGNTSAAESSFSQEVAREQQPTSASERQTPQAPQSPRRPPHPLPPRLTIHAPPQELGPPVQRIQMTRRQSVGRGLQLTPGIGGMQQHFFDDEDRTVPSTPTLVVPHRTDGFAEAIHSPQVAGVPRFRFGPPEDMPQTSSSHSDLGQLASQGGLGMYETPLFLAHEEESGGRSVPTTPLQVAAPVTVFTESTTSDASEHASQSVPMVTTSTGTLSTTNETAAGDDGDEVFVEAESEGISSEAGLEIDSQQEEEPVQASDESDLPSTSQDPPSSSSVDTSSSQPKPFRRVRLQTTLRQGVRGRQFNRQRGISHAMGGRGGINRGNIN
- Sequence (P16056 25-1379 limits assumed): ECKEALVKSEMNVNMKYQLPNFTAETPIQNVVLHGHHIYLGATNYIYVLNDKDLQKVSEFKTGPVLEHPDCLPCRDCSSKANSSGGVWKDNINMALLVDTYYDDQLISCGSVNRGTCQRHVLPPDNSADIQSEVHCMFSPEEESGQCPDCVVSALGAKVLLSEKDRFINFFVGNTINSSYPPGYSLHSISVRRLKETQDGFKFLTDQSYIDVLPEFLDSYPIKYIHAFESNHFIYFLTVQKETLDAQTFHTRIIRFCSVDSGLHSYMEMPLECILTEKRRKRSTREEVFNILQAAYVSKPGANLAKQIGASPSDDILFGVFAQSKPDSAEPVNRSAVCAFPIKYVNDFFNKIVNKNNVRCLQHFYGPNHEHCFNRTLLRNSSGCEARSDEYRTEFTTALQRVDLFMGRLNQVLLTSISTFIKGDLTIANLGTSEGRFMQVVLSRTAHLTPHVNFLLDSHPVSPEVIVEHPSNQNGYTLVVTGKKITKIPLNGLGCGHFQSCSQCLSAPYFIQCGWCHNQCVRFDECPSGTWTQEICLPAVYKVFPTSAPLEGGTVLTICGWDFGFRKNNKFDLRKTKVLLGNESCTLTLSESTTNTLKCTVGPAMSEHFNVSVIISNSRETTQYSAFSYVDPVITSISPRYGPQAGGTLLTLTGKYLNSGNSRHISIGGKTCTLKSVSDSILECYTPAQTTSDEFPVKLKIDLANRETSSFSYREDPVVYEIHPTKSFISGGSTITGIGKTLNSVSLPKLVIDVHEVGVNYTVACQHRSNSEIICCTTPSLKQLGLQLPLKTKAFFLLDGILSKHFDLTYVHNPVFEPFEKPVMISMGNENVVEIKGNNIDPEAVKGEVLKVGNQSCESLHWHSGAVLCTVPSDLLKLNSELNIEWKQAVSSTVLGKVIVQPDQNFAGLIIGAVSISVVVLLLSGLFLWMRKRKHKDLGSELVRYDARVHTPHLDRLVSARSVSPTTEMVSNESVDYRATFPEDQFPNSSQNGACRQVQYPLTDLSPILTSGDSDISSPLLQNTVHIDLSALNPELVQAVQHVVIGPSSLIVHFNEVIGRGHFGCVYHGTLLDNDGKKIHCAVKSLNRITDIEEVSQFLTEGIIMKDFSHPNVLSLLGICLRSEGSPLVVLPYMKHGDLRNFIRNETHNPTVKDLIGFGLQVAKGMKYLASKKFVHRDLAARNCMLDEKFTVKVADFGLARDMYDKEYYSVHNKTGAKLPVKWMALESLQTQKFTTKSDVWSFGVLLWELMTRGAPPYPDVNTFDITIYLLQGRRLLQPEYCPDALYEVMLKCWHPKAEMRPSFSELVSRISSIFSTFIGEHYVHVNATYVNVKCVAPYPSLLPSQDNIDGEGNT
- procedure-details: Inhibition of TPR-MET in mouse […] cells assessed as inhibition of cell proliferation at 10 uM after 72 hrs by SRB or MTT assay relative to control
- Type: cell-based
Quick note: give the figure in %, leave out the unit.

Which inhibition is reported for this compound? c1ccc(-c2cnc3nnc(Cc4ccc5ncccc5c4)n3n2)cc1
80.9

###

- procedure-details: Clearance in Sprague-Dawley rat at 10 mg/kg, iv administered as single dose
- Format: ADME, organism-based
- condition-info: in vivo
test-readout: clearance (mL/min/kg)
Your answer is read as mL/min/kg, so omit the unit and give the number.

Data request, read-out clearance, for Cn1cc(-c2cnc3nnc(C(F)(F)c4ccc5ncccc5c4)n3n2)cn1
22.3
